B1: USP39 (parent)
chain: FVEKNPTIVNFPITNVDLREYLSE

- Variants of: B1
- Assay Text: protein stability index of a GFP-peptide fusion (GPS, HEK-293T) (PSI 1-6); higher = more stable;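 further: lentivirally expressed fusions sorted by FACS into six bins by GFP to DsRed ratio, PSI derived from sequencing read proportions per bin multiplied by bin number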
- Experimental Setup: c terminus: a fixed tail appended
Readout Label: protein stability index
# respond with the number and nothing more

### Prompt Which measured protein stability index value corresponds to F1Y ?
### Response 1.99

### Prompt Could you share which protein stability index value was measured for N5V ?
### Response 2.05

### Prompt Field request: protein stability index | item: F11T
### Response 2.02

### Prompt Bench note: what protein stability index did E24F show?
### Response 2.02
